# System: MDA-MB-435
# protocol_details: NCI tumour cell line growth inhibition, 48 h
The source made the active and inactive calls. Rule as the data show it: active = GI50 up to about 1.1 µM and inactive = higher. Where a SMILES comes first, the peptide text is derived from it. Bridges are numbered along the chain shown (N, C = ends). [ ]: non-standard residue; d: D form. The star is where a group is joined. ξ: configuration not given here. X28 = O=C(/C=C/C=C/C=C/C=C/C=C/C(=O)*)NC1=C(O)CCC1=O; NMeA = CN[C@@H](C)C(=O)O; ξF = NC(Cc1ccccc1)C(=O)O; ξA = CC(N)C(=O)O
Classes used: 1.0 (active), 0.0 (inactive)

compound | group
COc1nc2ccc(CNc3ccc(C(=O)NC(CCC(=O)O)C(=O)O)cc3)cc2nc1OC (stereo not drawn) | 0.0
Cc1cc(=O)[nH]c2cc(NC(=O)C(CCCNC(=N)N)NC(=O)OCc3ccccc3)ccc12 (stereo not drawn) | 0.0
CC(O)(/C=C/c1ccccc1)P(=O)(O)c1ccccc1 (stereo not drawn) | 0.0
CCCC(CCC(N)=O)(CCC(N)=O)[N+](=O)[O-] | 0.0
Cc1cccc(C)c1N1C(=O)C2c3[nH]c4ccccc4c3C3CCC(C(C)(C)C)CC3C2C1=O (stereo not drawn) | 0.0
COc1cc(C2CC(C)(N3CCCC3)Oc3cc4c(cc32)OCO4)cc(OC)c1OC (stereo not drawn) | 1.0
CCCCCCCCCCCCCCCCCCNC(=O)OCC(CNS(=O)(=O)CCC[n+]1cccc2ccccc21)COC (stereo not drawn) | 0.0
Cc1cc2nc3c(C#N)c4c(c(-c5ccc(Cl)cc5)n3c2cc1C)CCC4 | 0.0
CC(C)=CCc1c(O)cc2oc(-c3ccc(O)cc3O)cc(=O)c2c1O | 0.0
CC1NC(=O)[C@H](C)N(C)C(=O)[C@@H]2CCCN2C(=O)[C@@H](NC(=O)C(Cc2ccccc2)NC(=O)/C=C/C=C/C=C/C=C/C=C/C(=O)NC2=C(O)CCC2=O)COC(=O)[C@@H]2CCCN2C1=O (stereo partly drawn) (X28-[ξF]SP[NMeA][ξA]P; ester 2-C) | 0.0
C(=N\N=C1NCCN1)/c1ccc2ccccc2c1 | 0.0
COC1=C(OC)C(=O)C(Cc2c(Cl)nc3n2CCS3)=C(C)C1=O | 0.0
COc1cc(-c2[o+]c3cc(O)cc(OC4OC(CO)C(O)C(O)C4O)c3cc2OC2OC(CO)C(O)C(O)C2O)cc(OC)c1O (stereo not drawn) | 0.0
COc1ccccc1/N=C1\SCCN1C(=S)Nc1ccc(S(=O)(=O)/N=C/N(C)C)cc1 | 0.0
CC1CCc2c(c(CC3CC(=O)NC(=O)C3)nn2-c2ccccc2)C1 (stereo not drawn) | 0.0
NS(=O)(=O)c1ccc(NNC(=O)c2cccc3c(=O)c4ccccc4[nH]c23)cc1 | 0.0
CC/C(Cl)=N\OC(=O)Nc1ccc(F)c([N+](=O)[O-])c1 | 0.0
Cc1nn(C(=O)c2ccccc2O)c2c1C(c1ccc(O)cc1O)SC(=N)N2 (stereo not drawn) | 0.0
Fc1cc(-c2cc(-c3ccccc3)n[nH]2)c(Cl)cc1Cl | 0.0
Cc1ccc(S(=O)(=O)Oc2cc(S(=O)(=O)O)cc3cc(S(=O)(=O)O)cc(N)c23)cc1 | 0.0
Cc1ccc(C)c(COCCOCn2ccc(N)nc2=O)c1 | 0.0
O=c1/c(=C/c2ccccn2)sc2nc3cc4c(cc3n12)OCCO4 | 0.0
C[N+]12CCCCC1C(CN1C(=O)Cc3c4ccccc4c(c4ccccc34)CC1=O)CCC2 (stereo not drawn) | 0.0
O=C1OC(C2OC(=O)c3cc(O)c(O)c(O)c3-c3c(O)c(O)c4oc(=O)c5c(c(O)c(O)c6oc(=O)c3c4c65)-c3c(cc(O)c(O)c3O)C(=O)OCC2O)C2OC(=O)c3c(c(O)c(O)c(O)c3[C@H]2O)-c2c1cc(O)c(O)c2O (stereo partly drawn) | 0.0
C/C(=N\NC(=S)N1CCN(c2ccccn2)CC1)c1ccccn1 | 1.0
C=CCC1(O)C(=O)OC2C(O)COC21O (stereo not drawn) | 0.0
COc1ccc2c(c1)C(=O)[C@@](Nc1ccc(C=O)cc1)(OC)[C@@](OC)(c1ccc([N+](=O)[O-])cc1)O2 | 0.0
Cc1cnc(/C=N\NC(N)=S)c2cccc(N)c12 | 0.0
CCCCOCCOC1=CC(=O)c2c(O)ccc(O)c2C1=O | 1.0
CC(=O)Nc1ccc(/N=N\c2c(O)c(S(=O)(=O)O)cc3cc(S(=O)(=O)O)ccc23)cc1 | 0.0
CC1=NN(c2ccccc2)C(=O)C1/N=N/c1ccc([As](=O)(O)O)c(O)c1 (stereo not drawn) | 0.0
Cc1nc2c(nc1C)-c1[nH]c3c(c1C(=O)C2=O)CCCC3=O | 1.0
CCCc1n[nH]c(=O)n1N1C(=O)C=CC1=O | 0.0
Cc1occc1C(=S)Nc1ccc(Cl)c(/C=N/OC(C)C)c1 | 0.0
O=C(Cc1ccc(OCc2cccc(Cl)c2)cc1)NO | 0.0
O=C1c2ccccc2C(=O)c2c1ccc1nc3c(nc21)-c1c2ccccc2cc2cccc-3c12 | 0.0
COc1cc(/C=C/C=C2\CC/C(=C\C=C\c3ccc(O)c(OC)c3)C2=O)ccc1O | 0.0
Cc1ccc(C(=O)N/N=C(\N=N\c2ccccc2C(=O)O)c2ccc(N(C)C)cc2)cc1 | 0.0
